# Tested on: NCI-H226 lung
# EXPERIMENT: NCI-60 one-dose screen, 48 h (100 = growth as untreated, 0 = no growth, -100 = all killed)
# ASSAY CONDITIONS: 10 µM
About 83,000 compounds went through this panel and 20% of them were active in at least one assay; those are over-represented in the sample as a whole.
Reported growth values for a set of compounds
OBSERVABLE: growth (%)

>>> reported_value("COc1cc2c(O[C@@H]3OC[C@H](OC(C)=O)[C@H](OC(C)=O)[C@H]3O)c3c(c(-c4ccc5c(c4)OCO5)c2cc1OC)C(=O)OC3")
2.53
>>> reported_value("CN1C(=O)[C@]23SSC1(C)C(=O)N2[C@H]1Nc2ccccc2C1([C@@]12c4ccccc4N[C@@H]1N1C(=O)C4(C)SS[C@]1(C(=O)N4C)[C@H]2O)[C@@H]3O (some centres not stated)")
-96.6
>>> reported_value("COc1cc2c(O[C@@H]3OC[C@H](O)[C@H](O)[C@H]3O)c3c(c(-c4ccc5c(c4)OCO5)c2cc1OC)C(=O)OC3")
80.7
>>> reported_value("CCC(C)[C@H]1C(=O)O[C@H](C(C)C)C(=O)N(C)[C@@H](C(C)C)C(=O)O[C@H](C(C)C)C(=O)N(C)[C@@H](C(C)C)C(=O)O[C@H](C(C)C)C(=O)N1C (some centres not stated)")
21.2
>>> reported_value("CC1=C[C@H]2O[C@@H]3C[C@H]4OC(=O)/C=C\\C=C\\[C@H]([C@@H](C)O)OCC[C@@H](C)[C@H](O)C(=O)OC[C@@]2(CC1)[C@]4(C)[C@]31CO1")
-50.5
>>> reported_value("C=C1[C@@H](C)C2[C@H](Cc3ccccc3)NC(=O)[C@]23[C@H](OC(C)=O)/C=C/[C@@](C)(O)C(=O)[C@@H](C)C/C=C/[C@H]3[C@@H]1O (some centres not stated)")
53.4
>>> reported_value("NC1CCc2cc(O)c(O)cc2C1 (configuration not stated)")
90.7
